This collection of values is drawn from the supplement of paper PMC13380429.

System: Caco-2
Test: cell viability relative to DMSO; higher = less toxic
Settings: 72 h; 1000 nM
measured.metric: cell viability (%)
Entry rule: numbers only, all in %.

Query: I have this compound here, c1ccc(-c2oc3ncnc(NC[C@@H]4CCCO4)c3c2-c2ccccc2)cc1 [AIM-100] , and I need its recorded cell viability.
Result: 104

Query: Given the compound Cc1ccc(OC[C@@H](O)[C@H](C)NC(C)C)c2c1CCC2 (racemic) [ICI-118,551] , what is its reported cell viability?
Result: 109

Query: Given the compound CN(C)CCN(Cc1cccs1)c1ccccn1 [methapyrilene] , what is its reported cell viability?
Result: 104

Query: Look up cell viability for this compound: CC1=C(CCC(=O)O)c2cc3[nH]c(cc4nc(cc5[nH]c(cc1n2)c(C)c5C(C)O)C(C)=C4C(C)O)c(C)c3CCC(=O)O (centres undefined) [hematoporphyrin]
Result: 105

Query: Returns the measured cell viability for the input compound. Input: Cc1cc(C)c(CNC(=O)c2cc(-c3ccc(CN4CCOCC4)cc3)cc3c2cnn3C2CCCC2)c(=O)[nH]1
Result: 91.1

Query: Entry under review: CCn1c(=O)n(C2=C(CO)CN(CC3CCCCCCC3)CC2)c2ccccc21 [trap-101] . Reported cell viability?
Result: 93.6

Query: Quick one: cell viability for NCCCC[C@@H]1NC(=O)[C@@H](Cc2c[nH]c3ccccc23)NC(=O)[C@H](c2ccccc2)NC(=O)[C@@H]2C[C@@H](OC(=O)NCCN)CN2C(=O)[C@H](Cc2ccccc2)NC(=O)[C@H](Cc2ccc(OCc3ccccc3)cc2)NC1=O [pasireotide] ?
Result: 110

Query: cell viability for CNC(=O)c1cc(Oc2ccc(NC(=O)Nc3ccc(Cl)c(C(F)(F)F)c3)cc2)ccn1 [sorafenib] ?
Result: 99.1

Query: GET /values?readout=cell viability&item= CNC(=O)CN1CCC(Oc2cc3c(Nc4cccc(Cl)c4F)ncnc3cc2OC)CC1 [AZD8931]
Result: 77.7

====

Test system: Vero E6
Assay: cell viability relative to DMSO; higher = less toxic
Settings: 72 h; 100 nM
For each record, write down the corresponding cell viability.
The reply should be a number in %, with the unit left off.

Query: Please report the recorded cell viability for COC(=O)N/N=C/c1c[n+]([O-])c2ccccc2[n+]1[O-] [carbadox] .
Result: 88.9

Query: Find the recorded cell viability belonging to C[C@]12CC[C@H](O)CC1=CC[C@@H]1[C@@H]2CC[C@]2(C)C(c3cccnc3)=CC[C@@H]12 [Abiraterone (CB-7598)] and report it.
Result: 93.9

Query: Look up cell viability for this compound: Cc1cnc(NC(=O)Nc2cc(Br)c(C)cc2OC[C@@H]2CNCCO2)cn1
Result: 102

Query: Quick check: cell viability of Cc1ccccc1C(=O)Nc1ccc(C(=O)N2CCCC(N(C)C)c3ccccc32)cc1 (stereo not given) [mozavaptan] ?
Result: 98.3

Query: What does the data say about its cell viability? Entry: CCC(=O)O[C@H](CC(=O)O)C[N+](C)(C)C [levocarnitine-propionate]
Result: 99.2

Query: Need cell viability of CCCCn1c(-c2ccccc2)nc(-c2ccccc2)c1CN(Cc1ccc2c(c1)OCO2)Cc1ccc2c(c1)OCO2 , thanks.
Result: 100

Query: Given Cc1ccccc1NC(=O)Nc1ccc(CC(=O)N(C)[C@@H](CC(C)C)C(=O)NCC[C@H](NC(=O)[C@@H]2CCCN2S(=O)(=O)c2cc(Cl)cc(Cl)c2)C(=O)O)cc1 [BIO-5192] , state its recorded cell viability.
Result: 93.1

Query: Please report the recorded cell viability for CCc1nc(C(N)=O)c(Nc2ccc(N3CCC(N4CCN(C)CC4)CC3)c(OC)c2)nc1NC1CCOCC1 [gilteritinib] .
Result: 100

Query: Requested read-out: cell viability. Entry: O=C(O)[C@H](O)[C@@H](O)[C@H](O)[C@H](O)CO [sodium-gluconate]
Result: 102

Query: Given the entry CCc1cccc(CC)c1NC1=NCCN1 [ST-91] , report its measured cell viability.
Result: 102

Query: Requested read-out: cell viability. Entry: C#Cc1cccc(Nc2ncnc3cc(OCCOC)c(OCCO)cc23)c1 [OSI-420]
Result: 98.2

Query: I am curious: what cell viability value has been reported for CC(C)(COP(=O)(O)OP(=O)(O)OC[C@H]1O[C@@H](n2cnc3c(N)ncnc32)[C@H](O)[C@@H]1OP(=O)(O)O)[C@@H](O)C(=O)NCCC(=O)NCCS [coenzyme-A] ?
Result: 92.4

Query: Which value of cell viability has been reported for CC(=O)NC1CCSC1=O (stereo not given) [citiolone] in the records?
Result: 95.6

Query: Which cell viability reading was recorded for the compound C[C@H](N)[C@H](O)c1ccc(O)c(O)c1 [levonordefrin] ?
Result: 103

Query: Request the reported cell viability associated with CC(C)NCC(O)COc1cccc2ccccc12 (stereo not given) [propranolol]
Result: 95.3

Query: cell viability for COc1ccc(Cc2nccc3cc(OC)c(OC)cc23)cc1OC [papaverine] ?
Result: 105

Query: // lookup cell viability for Nc1ccc(C(=O)Nc2cccc(-c3nc(N4CCOCC4)c4oc5ncccc5c4n3)c2)cn1
Result: 96.4

Query: What does the record list as cell viability for NCC(=O)Nc1ccc(-n2nc(C(F)(F)F)cc2-c2ccc3c(ccc4ccccc43)c2)cc1 [AR-12] ?
Result: 95.7

Query: Need cell viability of CCC(CC)CC1(C(=O)Nc2ccccc2SC(=O)C(C)C)CCCCC1 [dalcetrapib] , thanks.
Result: 101

Query: Would you mind telling me what cell viability value was observed for CNC(=N)NCCC[C@H](N)C(=O)O [targinine] ?
Result: 95.9

Query: Given Fc1ccc(CN2CCC(Nc3ccc(C(F)(F)F)nn3)CC2)cc1F , state its recorded cell viability.
Result: 97.4

Query: I am curious: what cell viability value has been reported for N[C@H](C(=O)O)[C@H](O)c1ccc(O)c(O)c1 [droxidopa] ?
Result: 96.8

Query: Which cell viability value belongs to CC[N+]1(C)CCCC(OC(=O)C(O)(c2ccccc2)c2ccccc2)C1 (stereo not given) [pipenzolate] ?
Result: 105

Query: Given CN1CCCN=C1/C=C/c1cccs1 [pyrantel-pamoate] , state its recorded cell viability.
Result: 96.4

Query: Returns the measured cell viability for the input compound. Input: COc1ccccc1CN[C@H]1CCCN[C@H]1c1ccccc1
Result: 98

Query: Any idea what cell viability was measured for COC(=O)[C@H](Cc1ccc([N+](=O)[O-])cc1)NC(=O)c1cccc2ccccc12 ?
Result: 90.8

Query: Given N[C@@H](CSCCCO)C(=O)O [fudosteine] , state its recorded cell viability.
Result: 99.6

Query: Could you tell me which cell viability is on file for CCOC(=S)SSC(=S)OCC [dixanthogen] ?
Result: 91.5

Query: Quick one: cell viability of NC[C@H]1O[C@H](O[C@H]2[C@H](O[C@@H]3O[C@H](CO)[C@@H](O)[C@H]3O)[C@@H](O)[C@H](N)C[C@@H]2N)[C@H](N)[C@@H](O)[C@@H]1O [ribostamycin-sulfate] ?
Result: 100

Query: Given CCc1cnn2c(NCc3ccc[n+]([O-])c3)cc(N3CCCC[C@H]3CCO)nc12 [dinaciclib] , state its recorded cell viability.
Result: 14.8

Query: Give the measured cell viability of CC(=O)OCC(=O)[C@@]12OC(C)(C)O[C@@H]1C[C@H]1[C@@H]3C[C@H](F)C4=CC(=O)C=C[C@]4(C)[C@@]3(F)[C@@H](O)C[C@@]12C [fluocinonide] .
Result: 97.9

Query: Given the entry CC(=O)[C@@]12O[C@](C)(c3ccccc3)O[C@@H]1C[C@H]1[C@@H]3CCC4=CC(=O)CC[C@]4(C)[C@H]3CC[C@@]12C [algestone-acetophenide] , report its measured cell viability.
Result: 87.5

Query: Item O=C(CO)[C@@H](O)[C@@H](O)[C@H](O)CO [tagatose] has what recorded cell viability?
Result: 92.1

Query: Fill in: cell viability of CC(C)n1cnc2c(NCCc3ccc(O)cc3)nc(-c3csc4ccccc34)nc21 [stemregenin-1] is ___
Result: 104

Query: Which cell viability is listed for N#Cc1cc2nc(O)c(O)nc2cc1[N+](=O)[O-] [CNQX] ?
Result: 104
